- assay_protocol: Selectivity for rat recombinant FAAH over TGH
Recorded measurements of Ratio IC50, one per entry
property_label: Ratio IC50

| query_smiles | reported_value |
| --- | --- |
| O=C(O)c1cnc(C(=O)CCc2ccc(Oc3ccccc3)cc2)o1 | 30 |
| O=C(CCCCCCc1ccccc1)c1ncc(-c2cccc(-c3nnn[nH]3)n2)o1 | > 200 |
| N#Cc1cnc(C(=O)CCc2ccc(-c3ccccc3)cc2)o1 | 26 |
| O=C(CCc1ccc(Oc2ccccc2)cc1)c1ncco1 | 0.06 |
| N#Cc1cnc(C(=O)CCc2ccc(COc3ccccc3)cc2)o1 | 50 |
| O=C(O)c1cnc(C(=O)CCc2ccc(COc3ccccc3)cc2)o1 | 740 |
| O=C(O)c1cnc(C(=O)CCc2ccc(-c3ccccc3)cc2)o1 | 850 |
| O=C(CCc1ccc(COc2ccccc2)cc1)c1ncc(-c2ccccn2)o1 | 1000 |

====

- tgt: Fatty-acid amide hydrolase 1 (Rattus norvegicus)
- Sequence (P97612 whole entry): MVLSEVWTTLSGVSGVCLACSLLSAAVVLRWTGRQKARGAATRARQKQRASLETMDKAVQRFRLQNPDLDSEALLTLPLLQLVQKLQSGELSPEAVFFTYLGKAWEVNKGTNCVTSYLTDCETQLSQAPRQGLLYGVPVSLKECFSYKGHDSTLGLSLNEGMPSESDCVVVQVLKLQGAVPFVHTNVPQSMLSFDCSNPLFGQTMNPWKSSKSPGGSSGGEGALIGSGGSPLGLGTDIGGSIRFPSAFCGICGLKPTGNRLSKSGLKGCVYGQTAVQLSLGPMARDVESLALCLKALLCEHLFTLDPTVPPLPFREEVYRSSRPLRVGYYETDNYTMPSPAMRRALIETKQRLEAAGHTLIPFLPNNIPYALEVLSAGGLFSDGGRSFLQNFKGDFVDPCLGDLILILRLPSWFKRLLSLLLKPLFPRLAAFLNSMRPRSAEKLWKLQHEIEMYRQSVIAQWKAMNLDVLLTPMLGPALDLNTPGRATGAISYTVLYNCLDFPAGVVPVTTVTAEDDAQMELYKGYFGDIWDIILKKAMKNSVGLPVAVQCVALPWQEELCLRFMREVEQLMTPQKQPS
- assay_protocol: Inhibition of rat recombinant FAAH expressed in Escherichia coli
Listed below: Ki values for each entry.

| compound | Ki |
| --- | --- |
| O=C(CCc1ccc(Oc2ccccc2)cc1)c1ncco1 | 0.077 µM |
| COC(=O)c1cnc(C(=O)CCc2ccc(-c3ccccc3)cc2)o1 | 0.0015 µM |
| COC(=O)c1cccc(-c2cnc(C(=O)CCc3ccc(OC4CCN(C(=O)OC(C)(C)C)CC4)cc3)o2)n1 | 0.032 µM |
| COC(=O)c1cnc(C(=O)CCc2ccc(Oc3ccccc3)cc2)o1 | 0.0017 µM |
| N#Cc1cnc(C(=O)CCc2ccc(COc3ccccc3)cc2)o1 | 0.0005 µM |
| O=C(O)c1cccc(-c2cnc(C(O)CCc3ccc(-c4ccccc4)cc3)o2)n1 (configuration not stated) | 1.1 µM |
| CN(C)C(=O)c1cnc(C(=O)CCc2ccc(-c3ccccc3)cc2)o1 | 0.003 µM |
| O=C(O)c1cccc(-c2cnc(CCCc3ccc(-c4ccccc4)cc3)o2)n1 | 10 µM |
| O=C(CCc1ccc(-c2ccccc2)cc1)c1ncco1 | 0.016 µM |
| CNC(=O)c1cnc(C(=O)CCc2ccc(Oc3ccccc3)cc2)o1 | 0.011 µM |
| NC(=O)c1cnc(C(=O)CCc2ccc(-c3ccccc3)cc2)o1 | 0.0035 µM |
| O=C(O)c1cnc(C(=O)CCc2ccc(-c3ccccc3)cc2)o1 | 0.01 µM |
| CN(C)C(=O)c1cnc(C(=O)CCc2ccc(COc3ccccc3)cc2)o1 | 0.0067 µM |
| O=C(CCc1ccc(COc2ccccc2)cc1)c1ncco1 | 0.025 µM |
| CSc1cnc(C(=O)CCc2ccc(-c3ccccc3)cc2)o1 | 0.003 µM |
| O=C(CCc1ccc(-c2ccccc2)cc1)c1ncc(C(=O)C(F)(F)F)o1 | 0.008 µM |
| N#Cc1cccc(-c2cnc(C(=O)CCc3ccc(-c4ccccc4)cc3)o2)n1 | 0.0029 µM |
| O=C(CCc1ccc(-c2ccc(CN3CCCCC3)cc2)cc1)c1ncco1 | 0.025 µM |
| O=C(CCc1ccc(Oc2ccccc2)cc1)c1ncc(C(F)(F)F)o1 | 0.002 µM |
| O=C(O)c1ccc(-c2cnc(C(O)CCc3ccc(-c4ccccc4)cc3)o2)nc1 (configuration not stated) | 10 µM |
| O=C(CCc1ccc(COc2ccccc2)cc1)c1ncc(I)o1 | 0.004 µM |
| O=C(O)c1cnc(C(=O)CCc2ccc(Oc3ccccc3)cc2)o1 | 0.041 µM |
| N#Cc1cccc(-c2cnc(C(=O)CCc3ccc(COc4ccccc4)cc3)o2)n1 | 0.00056 µM |
| O=C(CCc1ccc(Oc2ccccc2)cc1)c1ncc(I)o1 | 0.01 µM |
| O=C(CCc1ccc(-c2ccccc2)cc1)c1ncc(C(F)(F)F)o1 | 0.0007 µM |
| COC(=O)c1cccc(-c2cnc(CCCc3ccc(-c4ccccc4)cc3)o2)n1 | 7 µM |
| NC(=O)c1cnc(C(=O)CCc2ccc(Oc3ccccc3)cc2)o1 | 0.0066 µM |
| CN1CCN(Cc2ccc(-c3ccc(CCC(=O)c4ncc(-c5cccc(C(=O)O)n5)o4)cc3)cc2)CC1 | 1.2 µM |
| O=C(O)c1cccc(-c2cnc(C(=O)CCc3ccc(OC4CCNCC4)cc3)o2)n1 | 11 µM |
| NC(=O)c1ccc(-c2cnc(CCCc3ccc(-c4ccccc4)cc3)o2)nc1 | 30 µM |
| NC(=O)c1cnc(C(=O)CCc2ccc(COc3ccccc3)cc2)o1 | 0.0045 µM |
| O=C(O)c1ccc(-c2cnc(CCCc3ccc(-c4ccccc4)cc3)o2)nc1 | 20 µM |

The measurements presented in this section are drawn from ChEMBL document CHEMBL1142267.
